Tested on: Huh7 D12
experiment-description: Antiproliferative assay, Huh7 D12
Format: cell-based, human
protocol-conditions: Homo sapiens, Huh-7D12; 48 h incubation; average of three assays, standard error ± 0.5 μM
pIC50: −log10 of the molar value.
pIC50 listing for selected compounds.

compound	target-desc	qualifier-sign	pIC50
COc1cccc2c1C(=O)c1c(O)c3c(c(O)c1C2=O)C[C@@](O)(C(=O)CO)C[C@@H]3O[C@H]1C[C@H](N)[C@H](O)[C@H](C)O1 [Doxorubicin, reference compound]	Huh7 D12	=	7.22
N=c1c2c(ncn1/N=C/c1ccccc1O)Oc1ccccc1C2 [10e]	Huh7 D12	=	5.77
CCN(CC)c1ccc2c(c1)Oc1ncn(/N=C/c3ccccc3)c(=N)c1C2 [10c]	Huh7 D12	<	4.60
